self-cleavage kobs at 10000 uM GlcN6P values, listed per item
B1: glmS ribozyme (parent)
chain: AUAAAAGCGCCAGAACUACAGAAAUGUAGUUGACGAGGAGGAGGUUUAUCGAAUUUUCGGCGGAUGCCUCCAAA

# Variants of: B1
# experimental-protocol: self-cleavage kobs at 10000 uM GlcN6P; higher = faster cleavage; RNA array
# experimental-context: with glucosamine-6-phosphate
This sample holds only a part of the variants without activity.
I only need the number, in s⁻¹, no unit after it.

Worked cases, self-cleavage kobs at 10000 uM GlcN6P given:
U55A C67U : 0.0154
C11A C71U : 0.000113
A14C U55C : 0.00439
U30C A53U : 0.000159
U55C U57A : 0.00024
A6U U56A : 9.06e-05
G41A A42G : 0.000192
A39G A48G : 0.000106
A53U U65G : 0.00323
C11A A52G : 3.16e-05

Output self-cleavage kobs at 10000 uM GlcN6P of U47C A52U
0.000231

For the variant A15C G41C , give its measured self-cleavage kobs at 10000 uM GlcN6P value.
2.79e-05

Return reported self-cleavage kobs at 10000 uM GlcN6P. Input variant: A12U G59A
0.000159
